Biological target: T1, PUF4 RNA-binding domain (Saccharomyces cerevisiae, UniProt P25339 537-888)
T1 sequence: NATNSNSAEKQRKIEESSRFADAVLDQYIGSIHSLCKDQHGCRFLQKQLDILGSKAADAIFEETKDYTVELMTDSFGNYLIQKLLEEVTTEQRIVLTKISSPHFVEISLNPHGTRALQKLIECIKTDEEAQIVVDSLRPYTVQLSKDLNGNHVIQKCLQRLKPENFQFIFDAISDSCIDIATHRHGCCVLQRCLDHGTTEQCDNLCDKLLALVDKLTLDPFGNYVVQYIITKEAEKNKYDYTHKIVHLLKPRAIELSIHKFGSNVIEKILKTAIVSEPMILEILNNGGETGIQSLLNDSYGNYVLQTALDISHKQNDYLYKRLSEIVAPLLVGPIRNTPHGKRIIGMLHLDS
Experiment: Mg; RNA-MaP; 20 mM Na-HEPES pH 7.4, 30 mM KOAc, 0.75 mM MgCl2, 0.1% Tween-20, 5% glycerol, 0.1 mg/mL BSA, 2 mM DTT; 25 C; 0.0125-409.6 nM protein
Conditions: tags: N-His6-TEV cleaved; C-SNAP kept, Cy3B-labelled; label: tethered on chip by stalled RNA polymerase
Task for the reader: assign each of the following binders its reported Kd.
Numbers only, in nM.

{"binder": "UCUCUUUGUAUAUUAUUAUCUCUCUU (ssRNA) [Id_ii_S1_P5E.3_K5.2_C5.2_[C-2T]_[T-1G]_H5.2_A5.1_F5.1_T5.2_[A12C]]", "Kd [nM]": 0.576}
{"binder": "ACAAACUUUAUAUAUAUUACAAAC (ssRNA) [Id_ii_S3_P3E.3_K3.2_C3.2_[C-2T]_H3.2_A3.1_F3.1_T3.2_[A10T]]", "Kd [nM]": 34.5}
{"binder": "UCUCUUUGUACGCAUGUCUCUU (ssRNA) [Ic_S1_P5E.1_K5.1_C5.1_H5.1_A5.1_[T5C]_[T6G]_[A7C]_F5.1_[T8A]_[A10G]_T5.1]", "Kd [nM]": 581}

Okay, next one:
[Q] Query: Kd; subject: UCUCUUCCUCUCUUGUAUAUAUAUCUCUU (ssRNA) [Ie_S1_P3E.2_K3.1_C3.2_[+-2CTCTC]_H3.1_A3.1_F3.1_T3.2]
[A] 7.46
